Test system: NCI-H226
procedure.text: NCI tumour cell line growth inhibition, 48 h
Calls of active or inactive are those of the source. Rule as the data show it: active = GI50 up to about 1.1 µM and inactive = higher.
Respond with a class label; see yes (1) (active), no (0) (inactive)

| compound | assigned.category |
| --- | --- |
| Clc1ncc(C(Cl)(Cl)Cl)nc1-c1ccccc1 | no (0) |
| O=C1C2C(C(=O)N1OS(=O)(=O)c1ccccc1)N(Cc1ccccc1)C(=O)N2Cc1ccccc1 (stereo not drawn) | no (0) |
| COC(=O)C(=O)C(C(=O)C(=O)Nc1ccc(C)cc1C)c1nc2ccc(Cl)cc2nc1O (stereo not drawn) | no (0) |
| CCO/S(=N/S(=O)(=O)c1ccccc1)c1ccccc1[N+](=O)[O-] (stereo not drawn) | no (0) |

Please state the recorded outcome for this compound: O=C(c1ccccc1)N1CCC(Nc2nccs2)O1 (stereo not drawn)
no (0)

Please state the recorded outcome for this compound: Cc1ccc(NC(=O)CCc2nnc3s/c(=C\c4cccc([N+](=O)[O-])c4)c(=O)n23)cc1
no (0)

Please state the recorded outcome for this compound: C[n+]1cccc(NC(=O)c2ccc(NC(=O)C34CCC(C(=O)Nc5ccc(C(=O)Nc6ccc[n+](C)c6)cc5)(CC3)CC4)cc2)c1
no (0)

Please state the recorded outcome for this compound: CCOC(=O)c1cc(C)nc2c1c(=O)n(-c1ccccc1)c(=O)n2CCCCN1CCN(c2ncccn2)CC1
no (0)

Please state the recorded outcome for this compound: COC(=O)C(=O)C1(CCC(C)=O)c2ccccc2-c2ccccc21
no (0)

Please state the recorded outcome for this compound: Cc1ccc(S(=O)(=O)OC2C(C3COC(C)(C)O3)OC3OC(C)(C)OC32)cc1 (stereo not drawn)
no (0)

Please state the recorded outcome for this compound: Cc1ccc(O)c(C(c2cc(C)ccc2O)c2cc([N+](=O)[O-])ccc2O)c1
no (0)
